// cytotoxicity at 10 µM lookup, one value per entry
EXPERIMENT_DESCRIPTION: Toxicity liver stage against HepG2, at 10uM
Assay type: cell-based
Set-up: test concentration 10 uM, cell line HepG2-A16-CD81EGFP
CONDITION_SUMMARY: human, HepG2-A16-CD81EGFP cells; read-out: INHIBITION
Field format: number, assumed %, no unit text.

INSERT INTO results (compound, measurement_kind, recorded_result) VALUES
  ('O=C(COc1coc(CN2CCOCC2)cc1=O)c1ccc(Cl)cc1', 'cytotoxicity at 10 µM', -10.6),
  ('Cc1ncnc(NCCCN2CCCCC2CO)c1C (centres undefined)', 'cytotoxicity at 10 µM', -2.35),
  ('CC(C)n1c(=O)[nH]c2cn(-c3ccccc3)c(=O)n21', 'cytotoxicity at 10 µM', -7.01);

-- ask Param item = COc1ccc(CNC(=O)N2CCN(CC(O)C3CC3)CC2)cc1 (centres undefined) ; retrieve measured cytotoxicity at 10 µM.
-- reply 7.11

-- ask cytotoxicity at 10 µM lookup needed for CN1C(=O)CC[C@@H]2[C@H]1CCN2S(=O)(=O)c1cccs1 , thanks.
-- reply -1.54

-- ask Please give the measured cytotoxicity at 10 µM for this compound: Cc1ccc(NC(=O)CSCc2cccnc2)nc1
-- reply -46.4
